target: hAChE (Homo sapiens, UniProt P22303); construct: 8.3 μL of either blood cell lysate or plasma dilutions; from tissue; host or cells: blood cell lysate; assay: biochemical; conditions: tested at 100 µM compound concentration; read-out: %Inhibition hAChE ± SD
Sequence (P22303 other isoform, or with tags, fused parts or gaps): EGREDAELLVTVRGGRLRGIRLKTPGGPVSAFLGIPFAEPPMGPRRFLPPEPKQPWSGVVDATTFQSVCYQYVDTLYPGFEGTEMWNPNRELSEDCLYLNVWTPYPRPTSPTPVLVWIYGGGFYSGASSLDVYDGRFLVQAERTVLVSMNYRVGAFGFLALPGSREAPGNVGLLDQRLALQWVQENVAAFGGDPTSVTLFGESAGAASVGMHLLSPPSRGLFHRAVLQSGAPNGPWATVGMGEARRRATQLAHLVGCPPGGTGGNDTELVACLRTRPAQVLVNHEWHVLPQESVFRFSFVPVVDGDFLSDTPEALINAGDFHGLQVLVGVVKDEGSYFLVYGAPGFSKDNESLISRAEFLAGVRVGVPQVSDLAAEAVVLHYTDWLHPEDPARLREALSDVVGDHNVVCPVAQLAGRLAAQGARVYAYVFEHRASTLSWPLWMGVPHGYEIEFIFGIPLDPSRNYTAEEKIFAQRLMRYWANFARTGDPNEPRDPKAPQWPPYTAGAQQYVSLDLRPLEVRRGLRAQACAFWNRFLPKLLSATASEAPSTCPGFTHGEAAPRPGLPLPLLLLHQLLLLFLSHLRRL
REPORTED_METRIC: inhibition at 100 µM (%)
Lab book: enter the figure in %, no units written.

-- ask Return inhibition at 100 µM measured with hAChE (Homo sapiens, UniProt P22303) given this compound: c1ccc2c(c1)ncc1cc3c(cc12)OCO3
-- reply 6

-- ask Query inhibition at 100 µM on hAChE (Homo sapiens, UniProt P22303) for COc1cc(CN(CCc2ccc(O)cc2)Cc2cc(OC)c(OC)cc2-c2cccc3c2N(C)CC3)c(-c2cccc3c2N(C)CC3)cc1OC
-- reply 9

-- ask Query inhibition at 100 µM on hAChE (Homo sapiens, UniProt P22303) for COc1cc(C=O)c(-c2cccc3c2N(C)CC3)cc1OC
-- reply 28

-- ask Hello, I am looking for reported inhibition at 100 µM with hAChE (Homo sapiens, UniProt P22303) for COc1ccc2c3c1O[C@H]1C=CC=C[C@@]31CCN(C)C2 [3,4-Anhydrogalanthamine (3), 3,4-anhydrogalanthamine] . Could you help?
-- reply 4

-- ask Fill in the recorded inhibition at 100 µM for this compound, with hAChE (Homo sapiens, UniProt P22303) as test system: COc1cc(CN(C)CCc2ccc(O)cc2)c(-c2cccc3c2N(C)CC3)cc1OC
-- reply 2

-- ask Can you look up inhibition at 100 µM on hAChE (Homo sapiens, UniProt P22303) for CN(CCc1ccc(O)cc1)Cc1cc2c(cc1-c1cccc3c1N(C)CC3)OCO2 ?
-- reply 40

###

molecular target: hAChE (Homo sapiens); construct: 8.3 μL of either blood cell lysate or plasma dilutions; experiment: biochemical; details: mean ± SD of three independent measurements, each in triplicate
pIC50: −log10 of the molar value.
REPORTED_METRIC: pIC50

-- ask Form field: reported pIC50 of COc1ccc2c3c1O[C@H]1C=CC=C[C@@]31CCN(C)C2 [3,4-Anhydrogalanthamine (3), 3,4-anhydrogalanthamine]
-- reply < 4.00

-- ask I am curious: what pIC50 value has been reported for c1ccc2c(c1)ncc1cc3c(cc12)OCO3 ?
-- reply < 4.00

-- ask # pIC50 lookup, item COc1cc(CN(C)CCc2ccc(O)cc2)c(-c2cccc3c2N(C)CC3)cc1OC
-- reply < 4.00

-- ask Any idea what pIC50 was measured for COc1cc(C=O)c(-c2cccc3c2N(C)CC3)cc1OC ?
-- reply < 4.00

-- ask Could you tell me which pIC50 is on file for CN(CCc1ccc(O)cc1)Cc1cc2c(cc1-c1cccc3c1N(C)CC3)OCO2 ?
-- reply < 4.00

-- ask Need pIC50 of COc1cc(CN(CCc2ccc(O)cc2)Cc2cc(OC)c(OC)cc2-c2cccc3c2N(C)CC3)c(-c2cccc3c2N(C)CC3)cc1OC , thanks.
-- reply < 4.00
